Where do the numbers come from? From the Human Domainome abundance scans (Beltran et al. 2025).

B1: SH3 and PX domain-containing protein 2B, residues 155 to 209; numbered along this chain, A1X283 (parent)
chain: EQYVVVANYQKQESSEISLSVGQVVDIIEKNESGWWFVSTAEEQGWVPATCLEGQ

# Variants of: B1
# Assay Protocol: abundance fitness (aPCA) (normalised: wild type 0, dead -1); higher = more abundant; growth selection in yeast, the domain comes from the species named
# Stated Conditions: Homo sapiens
# maps each entry to its abundance fitness

Q) Recorded abundance fitness of "EQYVVVANYQKQEVSEISLSVGQVVDIIEKNESGWWFVSTAEEQGWVPATCLEGQ" , please.
A) 0.014

Q) Recorded abundance fitness of "EQYVVVANYQKQESSEISLSVGQVVDIIEKNESGWWFVSTAEEQGWGPATCLEGQ" , please.
A) -0.493

Q) Recorded abundance fitness of "EQYVVVANMQKQESSEISLSVGQVVDIIEKNESGWWFVSTAEEQGWVPATCLEGQ" , please.
A) -0.508

Q) Recorded abundance fitness of "EQYVVVANYQKQESSEISLSVGQVVDIIEKNESGWWFVSTAEEQGWPPATCLEGQ" , please.
A) -0.922

Q) Recorded abundance fitness of "EQYVVVANYQKQESSEIRLSVGQVVDIIEKNESGWWFVSTAEEQGWVPATCLEGQ" , please.
A) -0.646

Q) Recorded abundance fitness of "EQYVVVANYQKQESSEISLSVGQVVDIIEKNESKWWFVSTAEEQGWVPATCLEGQ" , please.
A) -0.169

Q) Recorded abundance fitness of "EQYVVVANYQKQESSEISLSVGQVVDIIEKNESGWWFVSTAEEQGWVPATCLEGT" , please.
A) -0.07

Q) Recorded abundance fitness of "EQYVVVANYQKQESSEISLSVGQVVDIIEKNESGWWFVSTAEEQGWVPATCEEGQ" , please.
A) -1.1

Q) Recorded abundance fitness of "EQYVVVANYQKQASSEISLSVGQVVDIIEKNESGWWFVSTAEEQGWVPATCLEGQ" , please.
A) -0.359

Q) Recorded abundance fitness of "EQYVVVANYQKQESSEISLSIGQVVDIIEKNESGWWFVSTAEEQGWVPATCLEGQ" , please.
A) -0.166

Q) Recorded abundance fitness of "EQYVVVANYQKQESGEISLSVGQVVDIIEKNESGWWFVSTAEEQGWVPATCLEGQ" , please.
A) -0.073
